- Tested on: BaF3
- measurement.notes: Antiproliferative activity against mouse BaF3 cells expressing FLT3-ITD F691L mutant incubated for 48 hrs by CCK8 assay
- Assay type: functional, cell-based
- particulars: BaF3, 48 h
assay.readout: IC50 (nM)
One number for each entry, in nM.

# query: IC50 of entry CCCNc1nc(Nc2ccc(C#N)cc2)ncc1C#CCCCNC(=O)[C@H](C)N(C)C(=O)/C=C/CN(C)C
14.5

---

- Tested on: BaF3
- measurement.notes: Antiproliferative activity against mouse BaF3 cells expressing FLT3-ITD mutant incubated for 48 hrs by CCK8 assay
- Assay type: functional, cell-based
- particulars: BaF3, 48 h
assay.readout: pIC50
Give bare numbers, as −log10 of the molar value.

Write down the reported pIC50 of CCCNc1nc(Nc2ccc(C#N)cc2)ncc1C#CCCCNC(=O)[C@H](C)N(C)C(=O)/C=C/CN(C)C , test system: BaF3.
8.74
